Reference source: the supplement of paper PMC10949913

Reported area under concentration-response curve values are given for each entry in this list.
Test system: CU-ACC1
Assay: area under concentration-response curve (viability) (AUC (a.u.)); higher = less active
Conditions: 48 h
No unit in the answer, please; the number alone is enough.

Molecule: CC1(C)NC(=O)N(c2ccc([N+](=O)[O-])c(C(F)(F)F)c2)C1=O
area under concentration-response curve: 511
--
Molecule: N[C@@H]1CONC1=O
area under concentration-response curve: 533
--
Molecule: O=NN(CCCl)C(=O)NCCCl
area under concentration-response curve: 454
--
Molecule: C[C@](N)(Cc1ccc(O)c(O)c1)C(=O)O
area under concentration-response curve: 475
--
Molecule: C[C@H]1CCC/C=C/C2C[C@H](O)C[C@H]2[C@H](O)/C=C/C(=O)O1 (stereo not given in full)
area under concentration-response curve: 390

So what does the record say about area under concentration-response curve for `C=C1CC[C@@H]2[C@](C)(CO)[C@H](O)CC[C@@]2(C)[C@@H]1C/C=C1/C(=O)OC[C@H]1O` ?
334

So what does the record say about area under concentration-response curve for `CC(C)(C)C(=O)CN1C(=O)[C@H](NC(=O)Nc2cccc(C(=O)O)c2)CN(C2CCCCC2)c2ccccc21` ?
518

So what does the record say about area under concentration-response curve for `CCNC(=O)c1noc(-c2cc(C(C)C)c(O)cc2O)c1-c1ccc(CN2CCOCC2)cc1` ?
226

So what does the record say about area under concentration-response curve for `Cc1cnc(-c2cc(N3CCN(C(=O)CC[S+](C)(=O)[O-])CC3)ncc2Cl)c(C)c1` ?
536

So what does the record say about area under concentration-response curve for `CN(C)CCOC(c1ccccc1)c1ccccc1` ?
478

So what does the record say about area under concentration-response curve for `NC(=O)c1ccccc1Nc1ccnc(Nc2cccc(O)c2)n1` ?
465

So what does the record say about area under concentration-response curve for `COC(=O)Nc1nc2cc(C(=O)c3ccccc3)ccc2[nH]1` ?
440

So what does the record say about area under concentration-response curve for `O=C(c1c(F)ccc(N[S+](=O)([O-])N2CC[C@@H](F)C2)c1F)c1c[nH]c2ncc(-c3cnc(C4CC4)nc3)cc12` ?
470

###

Reported area under concentration-response curve values are given for each entry in this list.
Tested on: CU-ACC2
Assay: area under concentration-response curve (viability) (AUC (a.u.)); higher = less active
Settings: 48 h
No unit in the answer, please; the number alone is enough.

So what does the record say about area under concentration-response curve for `COc1ccc(-c2nc(N3CCOCC3)c3sc(CN(C)c4ncc(C(=O)NO)cn4)cc3n2)cn1` ?
281

So what does the record say about area under concentration-response curve for `c1ccc2c(-c3cnn4cc(-c5ccc(OCCN6CCOCC6)cc5)cnc34)ccnc2c1` ?
637

###

System: CU-ACC1
Assay: area under concentration-response curve (viability) (AUC (a.u.)); higher = less active
Details: 48 h
Value kind: area under concentration-response curve
No unit in the answer, please; the number alone is enough.

Examples with answers:
Molecule: COc1ccc(/C=C\c2cc(OC)c(OC)c(OC)c2)cc1O
Value kind: area under concentration-response curve
Meas value: 505
--
Molecule: CCCCCNC(=O)N1CCC(CN(Cc2ccc(Cl)cc2)Cc2ccc([N+](=O)[O-])s2)C1 (stereo not given)
Value kind: area under concentration-response curve
Meas value: 509
--
Molecule: CC(=O)O[C@@]12CO[C@@H]1C[C@H](O)[C@@]1(C)C(=O)[C@H](O)C3=C(C)[C@@H](OC(=O)[C@H](O)[C@@H](NC(=O)OC(C)(C)C)c4ccccc4)C[C@@](O)([C@@H](OC(=O)c4ccccc4)[C@H]21)C3(C)C
Value kind: area under concentration-response curve
Meas value: 302
--
Molecule: NC/1=N/C(=O)C2=C([NH]C=C2CCC3=CC=C(C=C3)C(=O)N[C@@H](CCC(O)=O)C(O)=O)N1
Value kind: area under concentration-response curve
Meas value: 523

Notebook entry, CU-ACC1 assay: area under concentration-response curve of `CC/C(=C(/c1ccc(/C=C/C(=O)O)cc1)c1ccc2[nH]ncc2c1)c1ccc(F)cc1Cl` = ?
501

Notebook entry, CU-ACC1 assay: area under concentration-response curve of `CCNCC[S+]([O-])(=O)NC[C@]1(S\C(=N/N1C(=O)C(C)(C)C)NC(=O)C(C)(C)C)C2=CC=CC=C2` = ?
452

Notebook entry, CU-ACC1 assay: area under concentration-response curve of `Clc1ccc2ncc(-c3cccc(NC4CNC4)n3)n2c1` = ?
522

Notebook entry, CU-ACC1 assay: area under concentration-response curve of `COC1=CC=C2Nc3cc(Cl)ccc3C(N=C3C=C(CN4CCCC4)C(=O)C(CN4CCCC4)=C3)=C2N1` = ?
477

Notebook entry, CU-ACC1 assay: area under concentration-response curve of CCC(=O)OCC(=O)C1(OC(=O)CC)C(C)CC2C3CC\C4=C\C(=O)\C=C/C4(C)C3(F)C(O)CC12C (stereo not given) = ?
528

Notebook entry, CU-ACC1 assay: area under concentration-response curve of `CN(CC(=O)N(Cc1ccc(C2CCCCC2)cc1)c1ccc(C(=O)O)c(O)c1)[S+](=O)([O-])c1c(F)c(F)c(F)c(F)c1F` = ?
486

Notebook entry, CU-ACC1 assay: area under concentration-response curve of `C[C@]12CC[C@H]3[C@@H](CC(=C)\C4=C\C(=O)\C=C/[C@]34C)[C@@H]1CCC2=O` = ?
320

Notebook entry, CU-ACC1 assay: area under concentration-response curve of `Cc1[nH]c(/C=C2\C(=O)Nc3ccc([S+](=O)([O-])Cc4c(Cl)cccc4Cl)cc32)c(C)c1C(=O)N1CCC[C@@H]1CN1CCCC1` = ?
334

Notebook entry, CU-ACC1 assay: area under concentration-response curve of `CC1(C)CCC2(CC1)N[C@@H](C(=O)N[C@@H]1CC[C@@H](C(N)=O)OC1)[C@H](c1ccnc(Cl)c1F)[C@]21C(=O)Nc2cc(Cl)ccc21` = ?
501

Notebook entry, CU-ACC1 assay: area under concentration-response curve of `Cc1nc2c([nH]1)-c1ccccc1N(C(=O)c1ccc(NC(=O)c3ccccc3-c3ccccc3)cc1)CC2` = ?
437

Notebook entry, CU-ACC1 assay: area under concentration-response curve of OC(CCN1CCCCC1)(C2CC\3CC2\C=C3)C4=CC=CC=C4 (stereo not given) = ?
522
